Values were extracted from patent US20050282743A1.

Entries and their Classification values follow.
target or system: PDZ protein (GST-PDZ fusion) (Homo sapiens, UniProt P50479)
Construct: made in house; host or cells: E. coli (DH5alpha, BL21 or JM109)
Sequence (P50479 1-330): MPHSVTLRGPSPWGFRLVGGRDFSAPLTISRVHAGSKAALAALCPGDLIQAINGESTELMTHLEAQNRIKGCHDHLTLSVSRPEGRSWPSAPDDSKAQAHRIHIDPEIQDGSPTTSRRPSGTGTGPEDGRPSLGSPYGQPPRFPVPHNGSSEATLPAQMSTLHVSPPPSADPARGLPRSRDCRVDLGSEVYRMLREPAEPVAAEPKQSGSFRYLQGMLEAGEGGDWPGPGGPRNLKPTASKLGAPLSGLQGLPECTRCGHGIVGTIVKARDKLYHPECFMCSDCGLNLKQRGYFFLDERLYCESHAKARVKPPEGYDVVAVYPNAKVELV
test description: G' assay (10 uM PL peptide), results of TABLE 7 and TABLE 12
Format: binding
assay setup: PDZ LIM RIL, PDZ Domain 1
Ends that are not written are not given here. * marks the point of attachment. Biotin = O=C1N[C@H]2[C@H](CS[C@H]2CCCCC(=O)*)N1

Answered examples (3):
Exercise: Give the value of Classification reported for the following: YSATYSELEDPGEMSPPIDL (Biotin-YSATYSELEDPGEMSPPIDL) [FceRlb]
Key: 1 (A450 nm 0-1)

Exercise: Give the value of Classification reported for the following: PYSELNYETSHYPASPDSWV (Biotin-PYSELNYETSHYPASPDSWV) [catenin - delta 2]
Key: 2 (A450 nm 1-2)

Exercise: Give the value of Classification reported for the following: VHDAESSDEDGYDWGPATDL (Biotin-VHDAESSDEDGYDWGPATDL) [zona occludens 3 (ZO-3)]
Key: 2 (A450 nm 1-2)

Consider the additional sequence presented here.
Exercise: Give the value of Classification reported for the following: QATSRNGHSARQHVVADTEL (Biotin-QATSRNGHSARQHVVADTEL) [CD34]
Key: 1 (A450 nm 0-1)

====

Entries and their Classification values follow.
target or system: PDZ protein (GST-PDZ fusion) (Homo sapiens)
Construct: made in house; host or cells: E. coli (DH5alpha, BL21 or JM109)
test description: G' assay (10 uM PL peptide), results of TABLE 7 and TABLE 12
Assay type: binding
assay setup: PDZ LIM-Mystique, PDZ Domain 1
Excerpt: Each page of TABLE 7 and 12 includes seven columns. The columns in each table are numbered from left to right such that the left-most column in each table is column 1 and the right-most column in each table is column 7. […] Finally, the seventh column labeled “Classification” is another measure of the level of binding. In particular, it provides an absorbance value at 450 nm which indicates the amount of PL peptide bound to the PDZ protein. […]
Ends that are not written are not given here. * marks the point of attachment. Biotin = O=C1N[C@H]2[C@H](CS[C@H]2CCCCC(=O)*)N1

Answered examples (2):
Exercise: Give the value of Classification reported for the following: "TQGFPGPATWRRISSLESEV"
Key: 4 (A450 nm 3-4)

Exercise: Give the value of Classification reported for the following: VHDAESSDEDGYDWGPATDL (Biotin-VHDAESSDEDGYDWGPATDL) [zona occludens 3 (ZO-3)]
Key: 2 (A450 nm 1-2)

New cases:
Exercise: Give the value of Classification reported for the following: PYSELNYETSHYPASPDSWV (Biotin-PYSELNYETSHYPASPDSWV) [catenin - delta 2]
Key: 5 (A450 nm of 4 more than 2× repeated)

Exercise: Give the value of Classification reported for the following: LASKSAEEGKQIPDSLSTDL (Biotin-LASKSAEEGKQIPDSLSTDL) [Dock2]
Key: 1 (A450 nm 0-1)

Exercise: Give the value of Classification reported for the following: A2AA_HUMAN (modified) (Biotin-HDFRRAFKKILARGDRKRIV; not fully specified)
Key: 1 (A450 nm 0-1)

Exercise: Give the value of Classification reported for the following: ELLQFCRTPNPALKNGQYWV (Biotin-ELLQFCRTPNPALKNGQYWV)
Key: 2 (A450 nm 1-2)
